Test system: polymorphonuclear leukocytes (PMNs)
Test: H-PMN Assay: LTB4 content of supernatant of A23187-stimulated human PMNs by radioimmunoassay
Assay type: cell-based
Details: Leukocyte, 10 min; Table II; human PMNs, calcium ionophore A23187, 37° C. for 10 minutes, LTB4 by radioimmunoassay
READOUT_LABEL: IC50 (µM)

[P] CSc1ccc(CCCc2ccccc2)cc1C=CC(=O)N(C)O
[Q] CCCCCCc1cccc(C=CC(=O)N(C)O)c1[S+](C)[O-] (stereo not drawn)
[R] CCCCSc1ccc(CCCc2ccccc2)cc1C=CC(=O)N(C)O
Request: Sort the listed entries by IC50, smallest first. // list labels; follow requested order
Response: P, R, Q
(P: 0.018 µM, R: 0.058 µM, Q: 0.19 µM)

----------
Tested on: polymorphonuclear leukocytes (PMNs)
Assay: H-PMN Assay: LTB4 content of supernatant of A23187-stimulated human PMNs by radioimmunoassay
Format: cell-based
Conditions: Leukocyte, 10 min; Table II; human PMNs, calcium ionophore A23187, 37° C. for 10 minutes, LTB4 by radioimmunoassay
pIC50: −log10 of the molar value.
READOUT_LABEL: pIC50

Record excerpt, results attached:
MOLECULE | REPORTED_VALUE
CCCCCCc1ccc(SC)c(C=CC(=O)N(C)O)c1 | 7.70
CCCCCCc1ccc(C=CC(=O)N(C)O)c(SC)c1 | 7.60
CCCCCCCCSc1ccccc1C=CC(=O)N(C)O | 7.96
CCc1ccc(CCCc2ccccc2)cc1C=CC(=O)N(C)O | 7.34
CN(O)C(=O)C=Cc1ccccc1Cc1ccccc1 [Example 37, 2-benzyl-N-hydroxy-N-methylcinnamamide] | 7.55

[A] CN(O)C(=O)C=Cc1ccccc1SCCCC(F)(F)F
[B] CCCCCCc1cccc(C=CC(=O)N(C)O)c1S(C)(=O)=O
[C] CN(O)C(=O)C=Cc1ccccc1CCCc1ccccc1
[D] CSc1ccccc1C=CC(=O)N(C)O
[E] CN(O)C(=O)C=Cc1ccccc1SCc1ccccc1
Request: Order the items by recorded pIC50; the first position goes to the largest value. // list labels; follow requested order
Response: E, C, A, D, B
(E: 8.15, C: 7.92, A: 7.62, D: 7.00, B: 6.34)

[P] CC(C)CSc1ccccc1C=CC(=O)N(C)O
[Q] CCCCCCSc1ccccc1C=CC(=O)N(C)O
Request: Two entries are listed, P and Q . Which one carries the higher pIC50? Label of pick, please.
Response: Q
(Q: 8.05, P: 7.77)

[a] CN(O)C(=O)C=Cc1ccccc1SCCCCCC(F)(F)F
[b] CCCCCCc1cccc(C=CC(=O)N(C)O)c1SC
[c] CCCCc1ccccc1C=CC(=O)N(C)O [Example 4, 2-n-butyl-N-hydroxy-N-methylcinnamamide]
Request: Arrange items by their pIC50 values in increasing order. // list labels; follow requested order
Response: b, c, a

[1] CN(O)C(=O)C=Cc1ccccc1SCCCc1ccccc1
[2] CCCCCCc1ccc([S+](C)[O-])c(C=CC(=O)N(C)O)c1 (stereo not drawn)
[3] CCCCCCc1ccc(C=CC(=O)N(C)O)c([S+](C)[O-])c1 (stereo not drawn)
[4] CCCCCCc1ccc(S(C)(=O)=O)c(C=CC(=O)N(C)O)c1
Request: Arrange items by their pIC50 values in increasing order. // list labels; follow requested order
Response: 4, 3, 2, 1

[P] CCCCSc1ccccc1C=CC(=O)N(C)O
[Q] C=CCCSc1ccccc1C=CC(=O)N(C)O
Request: Two entries are listed, P and Q . Which one carries the higher pIC50? Label of pick, please.
Response: Q

----------
Molecular target: 5-lipoxygenase (Cavia porcellus, UniProt A0A286X958)
Construct: 0.2 ml of the supernatant obtained from the PMNL sonicate; endogenous in cells; host or cells: casein-elicited guinea pig peritoneal polymorphonuclear leukocytes (PMNL), sonicate, 30,000 x g supernatant
Sequence (A0A286X958 1-674): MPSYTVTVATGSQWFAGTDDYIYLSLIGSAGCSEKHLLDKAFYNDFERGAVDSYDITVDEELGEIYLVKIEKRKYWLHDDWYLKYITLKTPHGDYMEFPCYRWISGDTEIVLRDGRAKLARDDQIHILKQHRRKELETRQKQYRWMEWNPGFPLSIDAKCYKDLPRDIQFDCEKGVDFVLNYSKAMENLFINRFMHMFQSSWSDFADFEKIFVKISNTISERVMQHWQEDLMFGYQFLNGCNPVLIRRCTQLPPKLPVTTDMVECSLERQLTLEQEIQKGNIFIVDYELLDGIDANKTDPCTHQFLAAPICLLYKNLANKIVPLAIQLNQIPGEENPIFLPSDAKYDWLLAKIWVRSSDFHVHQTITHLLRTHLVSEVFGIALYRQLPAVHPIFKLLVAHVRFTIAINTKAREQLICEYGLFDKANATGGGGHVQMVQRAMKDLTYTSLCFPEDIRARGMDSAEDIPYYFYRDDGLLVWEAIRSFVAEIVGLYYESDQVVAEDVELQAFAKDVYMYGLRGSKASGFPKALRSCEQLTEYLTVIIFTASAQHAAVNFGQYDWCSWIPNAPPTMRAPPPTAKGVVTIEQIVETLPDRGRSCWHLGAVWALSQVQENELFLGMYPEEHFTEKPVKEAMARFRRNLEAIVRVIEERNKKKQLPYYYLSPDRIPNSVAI
Test: 5-Lipoxygenase (5-LO) Assay: 5-HETE formation in supernatant of guinea pig PMNL sonicate
Format: biochemical
Conditions: Table II; guinea pig PMNL sonicate supernatant, 14C-arachidonic acid, 37° C.; read-out: 5-LO (concentration in which formation of 5-HETE is inhibited by 50%, IC50)
READOUT_LABEL: IC50 (nM)

Record excerpt, results attached:
COMPOUND | IC50, nM
CCCCCCCCSc1ccccc1C=CC(=O)N(C)O [Example 38] | 28
CSc1ccc(CCCc2ccccc2)cc1C=CC(=O)N(C)O [Example 27] | 26
CN(O)C(=O)C=Cc1ccccc1CCCc1ccccc1 [Example 43] | 60
CN(O)C(=O)C=Cc1ccccc1Cc1ccc(S(C)(=O)=O)cc1 [Example 15] | 490
CCCCSc1ccccc1C=CC(=O)N(O)C(C)C [Example 28] | 8

[a] CSc1cc(CCCc2ccccc2)ccc1C=CC(=O)N(C)O [Example 6]
[b] CSc1ccccc1C=CC(=O)N(C)O [Example 23]
Request: Which value of IC50 is smaller, the one for a or the one for b ? Label of pick, please.
Response: a
(a: 7 nM, b: 392 nM)

[a] CCCCSc1cc(C(F)(F)F)ccc1C=CC(=O)N(C)O [Example 7]
[b] CN(O)C(=O)C=Cc1cc(CCCc2ccccc2)ccc1[S+](C)[O-] (stereo not drawn) [Example 41]
[c] CN(O)C(=O)C=Cc1ccc(CCCc2ccccc2)cc1S(C)(=O)=O [Example 16]
[d] CCCC[S+]([O-])c1ccccc1C=CC(=O)N(C)O (stereo not drawn) [Example 36]
[e] CN(O)C(=O)C=Cc1ccccc1SCCCc1ccccc1 [Example 35]
Request: Order the items by recorded IC50; the first position goes to the largest value. // list labels; follow requested order
Response: d, b, c, a, e

----------
Target: 5-lipoxygenase (Cavia porcellus, UniProt A0A286X958)
Construct: 0.2 ml of the supernatant obtained from the PMNL sonicate; endogenous in cells; host or cells: casein-elicited guinea pig peritoneal polymorphonuclear leukocytes (PMNL), sonicate, 30,000 x g supernatant
Test: 5-Lipoxygenase (5-LO) Assay: 5-HETE formation in supernatant of guinea pig PMNL sonicate
Type: biochemical
Settings: Table II; guinea pig PMNL sonicate supernatant, 14C-arachidonic acid, 37° C.; read-out: 5-LO (concentration in which formation of 5-HETE is inhibited by 50%, IC50)
pIC50: −log10 of the molar value.
READOUT_LABEL: pIC50

COMPOUND | pIC50
CSc1ccc(Cc2ccccc2C=CC(=O)N(C)O)cc1 [Example 14] | 7.51

[A] CN(O)C(=O)C=Cc1ccccc1SCCCC(F)(F)F [Example 5]
[B] CCCCCCc1ccc(C=CC(=O)N(C)O)c([S+](C)[O-])c1 (centres unmarked) [Example 10]
[C] CCc1ccc(CCCc2ccccc2)cc1C=CC(=O)N(C)O [Example 30]
[D] CN(O)C(=O)C=Cc1ccc(S(C)(=O)=O)cc1Cc1ccccc1 [Example 12]
Request: Order the items by recorded pIC50; the first position goes to the largest value. // list labels; follow requested order
Response: A, C, B, D

----------
Biological target: 5-lipoxygenase (Cavia porcellus)
Construct: 0.2 ml of the supernatant obtained from the PMNL sonicate; endogenous in cells; host or cells: casein-elicited guinea pig peritoneal polymorphonuclear leukocytes (PMNL), sonicate, 30,000 x g supernatant
Assay: 5-Lipoxygenase (5-LO) Assay: 5-HETE formation in supernatant of guinea pig PMNL sonicate
Format: biochemical
Settings: Table II; guinea pig PMNL sonicate supernatant, 14C-arachidonic acid, 37° C.; read-out: 5-LO (concentration in which formation of 5-HETE is inhibited by 50%, IC50)
READOUT_LABEL: IC50 (nM)

COMPOUND | READOUT_LABEL | REPORTED_VALUE
CN(O)C(=O)C=Cc1ccc(CCCc2ccccc2)cc1[S+](C)[O-] (stereo not drawn) | IC50 | 8400

[A] CN(O)C(=O)C=Cc1ccccc1SCCCCCC(F)(F)F
[B] CCCCc1ccccc1C=CC(=O)N(C)O [Example 4, 2-n-butyl-N-hydroxy-N-methylcinnamamide]
Request: Two entries are listed, A and B . Which one carries the higher IC50? Label of pick, please.
Response: B

[A] CN(O)C(=O)C=Cc1ccccc1SCc1ccccc1
[B] CC(C)CSc1ccccc1C=CC(=O)N(C)O
[C] CCCCSc1ccc(CCCc2ccccc2)cc1C=CC(=O)N(C)O
Request: Arrange items by their IC50 values in increasing order. // list labels; follow requested order
Response: A, B, C
(A: 33 nM, B: 52 nM, C: 94 nM)

[A] CN(O)C(=O)C=Cc1ccccc1SCCCCCCc1ccccc1
[B] CCCCCCc1ccc(C=CC(=O)N(C)O)c(SC)c1
[C] CN(O)C(=O)C=Cc1cc(CCCc2ccccc2)ccc1S(C)(=O)=O
Request: Arrange items by their IC50 values in increasing order. // list labels; follow requested order
Response: A, B, C
(A: 33 nM, B: 82 nM, C: 304 nM)
